# System: Micrococcus luteus
# protocolText: Antibacterial activity against Micrococcus luteus MTCC 106 measured after 24 hrs by NCCL protocol based broth dilution method
# Format: functional
# experimentalParameters: MTCC 106, 24 h
Some molecules, each annotated with its measured MIC.
Unit µg/mL implied. Number only.

Here is how some molecules turned out for MIC.
Exercise: For the molecule CCOc1cccc(/C=N/c2cccc(B3OC[C@H]4O[C@@H]5OC(C)(C)O[C@@H]5[C@H]4O3)c2)c1O , what MIC is on record?
Key: 125

Exercise: For the molecule CC1(C)O[C@H]2O[C@@H]3COB(c4ccccc4C=O)O[C@@H]3[C@H]2O1 , what MIC is on record?
Key: 62.5

Exercise: For the molecule CC1(C)O[C@H]2O[C@@H]3COB(c4cccc(/N=C/c5ccc(Br)cc5O)c4)O[C@@H]3[C@H]2O1 , what MIC is on record?
Key: 62.5

Continuing:
Exercise: For the molecule CC1(C)O[C@H]2O[C@@H]3COC(c4cccc(/C=N/c5ccc(F)cc5)c4)O[C@@H]3[C@H]2O1 (some centres undefined) , what MIC is on record?
Key: 500
